Sourced from paper PMC9430589

- assayed_target: RhlB (DEAD box RNA helicase) (Deinococcus radiodurans R1) (UniProt Q9RXH8)
- Sequence: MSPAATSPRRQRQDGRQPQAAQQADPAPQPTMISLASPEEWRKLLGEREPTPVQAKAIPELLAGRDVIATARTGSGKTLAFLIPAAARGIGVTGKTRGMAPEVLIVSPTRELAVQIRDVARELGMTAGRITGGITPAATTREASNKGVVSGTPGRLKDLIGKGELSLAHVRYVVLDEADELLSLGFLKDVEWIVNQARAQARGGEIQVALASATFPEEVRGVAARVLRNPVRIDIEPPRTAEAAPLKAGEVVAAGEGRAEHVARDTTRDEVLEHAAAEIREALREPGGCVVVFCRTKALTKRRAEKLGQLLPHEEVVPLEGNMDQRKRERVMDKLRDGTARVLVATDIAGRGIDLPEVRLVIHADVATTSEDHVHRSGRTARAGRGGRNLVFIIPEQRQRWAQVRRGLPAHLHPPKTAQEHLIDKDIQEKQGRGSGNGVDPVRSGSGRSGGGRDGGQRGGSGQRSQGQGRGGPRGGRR
- assay_remarks: EMSA
- condition_notes: 8-oxoG at position 16; EMSA: 20 mM Tris-HCl pH 8.0, 1 mM MgCl2, 20 mM KCl, 10 mM Na phosphate pH 8.0, 10% glycerol, 500 nM heparin, 1 nM RNA, 37 C 1 h (PNPase: TMK, 50 mM Tris-HCl pH …)

residues	assayed_target	Kd (nM)
NNNGNNNNNGNNNNNGNNNNNGNN [8-oxoG x1 24-mer (random N, degenerate)]	RhlB (DEAD box RNA helicase) (Deinococcus radiodurans R1) (UniProt Q9RXH8)	383
